assayed-system: D(2) dopamine receptor (Rattus norvegicus, UniProt P61169)
Sequence (P61169 whole entry): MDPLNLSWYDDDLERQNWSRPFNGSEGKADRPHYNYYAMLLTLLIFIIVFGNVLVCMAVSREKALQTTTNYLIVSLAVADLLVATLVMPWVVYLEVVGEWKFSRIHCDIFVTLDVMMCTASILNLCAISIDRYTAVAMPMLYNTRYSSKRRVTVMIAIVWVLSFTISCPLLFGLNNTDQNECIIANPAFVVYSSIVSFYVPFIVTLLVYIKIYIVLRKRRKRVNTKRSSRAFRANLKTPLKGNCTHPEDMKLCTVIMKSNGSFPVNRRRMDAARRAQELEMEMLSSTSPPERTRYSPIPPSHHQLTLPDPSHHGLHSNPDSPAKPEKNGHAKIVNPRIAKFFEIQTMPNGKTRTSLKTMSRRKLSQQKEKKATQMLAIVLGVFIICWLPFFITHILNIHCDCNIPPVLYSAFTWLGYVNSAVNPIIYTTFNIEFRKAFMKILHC
metric: Ki (nM)

molecule="Cc1cccc2c1CN[C@H]1CCc3cc(O)c(O)cc3[C@H]21 [Dihydrexidine, 4-methyl]" metric=Ki value_reported=674

---

Assay system D(1A) dopamine receptor (Rattus norvegicus, UniProt P18901); read-out recorded as Ki.
metric: Ki (nM)

compound="CCCN1Cc2ccccc2[C@H]2c3cc(O)c(O)cc3CC[C@@H]21 [Dihydrexidine, N-propyl]" value_reported=180
compound="CCCN1Cc2c(C)cccc2[C@H]2c3cc(O)c(O)cc3CC[C@@H]21 [Dihydrexidine, 4-methyl-N-propyl]" value_reported=23.4
